These data points were gathered from PubChem BioAssay (NCI).

- Procedure Text: NCI Yeast Anticancer Drug Screen. Data for the mlh1 rad18 strain (AID 175)
- Condition Description: S. cerevisiae mlh1 rad18 strain growth inhibition; at 50.0 µM; hits give high values
The panel holds about 79,000 compounds, 15% with a hit somewhere; the sample as a whole holds those more often.
Experimental Readout: growth inhibition (%)
Use % as the unit, but write only the number.

Using the record for "Br" , report its growth inhibition.
-44.1

# query: growth inhibition of entry "Fc1ccc(Cl)c(-c2nc3ccccc3[nH]2)c1"
47.3

For the molecule Cc1c(Br)c(Br)nn1C(C)C(=O)N(C)C (stereo not drawn) , what growth inhibition is on record?
4.45

Need growth inhibition of "Cc1ccc(N=Cc2ccccc2O)cc1.[Co]" , thanks.
-11.1

What value of growth inhibition has been recorded for this entry: "COc1ccc2c(=O)cc[nH]c2c1OC"
4.85

Fill blank: measured growth inhibition of the molecule "CNc1c([N+](=O)[O-])cc2[nH]c(C)nc2c1[N+](=O)[O-]" is ____.
11.6

Please report the recorded growth inhibition for O=C(C1C2C=CC(C2)C1C(=O)N1CCCCC1)N1CCCCC1 (stereo not drawn) .
11.5

What measured growth inhibition goes with "CC(C)(C)/C(CC(=O)CCC(=O)Nc1ccc(Cl)cc1)=N\NC(N)=S" ?
20.8

# lookup: growth inhibition of "NCCCNCCCCN1CCOC1=O"
-17.9

// returns reported growth inhibition for input "Oc1c(CNCc2ccccc2)cc(CNCc2ccccc2)c(O)c1CNCc1ccccc1"
-14.8

Sample "COc1ccc(NC(=O)CC(=O)n2nc(C)c(N=Nc3ccccc3C(=O)O)c2C)cc1" — what was its growth inhibition?
15.3

For the molecule shown here, "CCCC(=O)c1ccc2c(ccc(=O)n2C)c1" , give the reported growth inhibition.
15.9

GET /values?readout=growth inhibition&item= COc1ccc(C(O)(CCN2CCOCC2)c2ccc3c(c2)OCO3)cc1 (stereo not drawn)
-0.3

---

- Procedure Text: NCI Yeast Anticancer Drug Screen. Data for the mec2-1 strain (AID 157)
- Condition Description: S. cerevisiae mec2-1 strain, at 50.0 µM
The panel holds about 79,000 compounds, 15% with a hit somewhere; the sample as a whole holds those more often. The source made the active and inactive calls. Cut-off read from the data, not from the text of the source: active = growth inhibition above about 70%; inactive = the rest.
Form entry, call: pick from active, inactive

Write down the call the test reported for this molecule. Item: COCCN1CCC(CO)C1 (stereo not drawn)
inactive

Can you look up the reported call for "N#Cc1c(N2CCCC2)ncn(Cc2ccccc2)c1=O" for me?
inactive

Name the outcome recorded for "CN(C)Cc1cc(C(=O)O)ccc1O" in the assay.
inactive

Check the results log: what was the call for "CSc1n[nH]c(SC)n1" ?
inactive

What did the test return for CCCCc1ccc(Nc2nc(OC)c3ncn(C4CC(O)C(CO)O4)c3n2)cc1 (stereo not drawn) ?
active

In this assay, the call recorded for "CCNC(=S)NC1CCCCC1" was what?
inactive

Can you look up the reported call for "CN(C)C(=O)CCCC(=O)c1cccc([N+](=O)[O-])c1" for me?
inactive

Dear colleague, could you share the recorded outcome for "NNC(=O)c1n[nH]n(N)c1=S" when you have a moment?
inactive

---

For each record, write down the corresponding growth inhibition.
- Procedure Text: NCI Yeast Anticancer Drug Screen. Data for the mlh1 rad18 strain (AID 175)
- Condition Description: S. cerevisiae mlh1 rad18 strain growth inhibition; at 50.0 µM; hits give high values
About 79,000 compounds went through this panel and 15% of them were active in at least one assay; those are over-represented in the sample as a whole.
The response must be a number in % with no trailing unit.

Which growth inhibition is reported for this compound? CC(C)=CCNc1ncnc2c1c(C#N)cn2C1OC(CO)C(O)C1O (stereo not given)
-5.95

I would be grateful if you could share the reported growth inhibition for "O=C(O)c1cc(-c2ccccc2O)nc2ccccc12" .
-1.5

Field request: growth inhibition | item: "O=C(Nc1ccccc1Br)c1ccc(F)cc1"
14.6

Endpoint output: growth inhibition of CC12CCC(C/C1=N\O)C2(C)CBr (stereo not given) . Value?
5.1

Param item = "C[N+]1(C)N=C([O-])N(c2ccccc2F)C1=O" ; retrieve measured growth inhibition.
-0.7

GET /values?readout=growth inhibition&item= "C=C(Cl)CSC(C)(C)C"
-8.5

What growth inhibition value was documented for this compound, "CCC(=O)NN1C(=O)c2ccccc2C1=O" ?
-10.2

Which growth inhibition is listed for "Cc1cc(N)c(C)c2ccncc12" ?
2.75

Field request: growth inhibition | item: "Nc1ccc(Cl)c(N)c1"
21.9

Reported growth inhibition for "O=c1c2ccccc2c(=O)n2n1C1CCC2C1" : what is it?
-6.15

Using the record for COC(=O)/C(=N\N)C(C(=O)C(=O)Nc1nc(=S)[nH][nH]1)c1nc2ccc([N+](=O)[O-])cc2[nH]c1=O (stereo not given) , report its growth inhibition.
22.6

Quick check: growth inhibition of "c1cc2c3c(c1)ccc1cccc(c13)C2" ?
27.1

What measured growth inhibition goes with COC(=O)CC1(C(=O)OC)Oc2ccc(Br)cc2C(=O)N1c1cccc(Cl)c1Cl (stereo not given) ?
54.1

Item "CCN(CC)Cc1cc(N=Nc2ccc(-c3ccc(N)c(OC)c3)cc2OC)c2ccccc2c1O" has what recorded growth inhibition?
27.4

Which growth inhibition value belongs to CC(O)c1ccc(N=NN(C)C)cc1 (stereo not given) ?
21.2

Fill blank: measured growth inhibition of the compound "Cc1ccc(C)c(NC(=O)Oc2cc(C)c(Cl)cc2C(C)C)c1" is ____.
98.8

For the compound "CCOC(=O)C1=C(C(=O)C(C)(C)C)C(c2ccc([N+](=O)[O-])cc2)C(C(=O)C(C)(C)C)=C(C(=O)OCC)N1" , what growth inhibition is on record?
14.3

Field request: growth inhibition | item: "NCC(=O)c1cc2ccccc2[n+]([O-])c1"
-14.4

Any idea what its growth inhibition is? The compound is CN1c2ccccc2N(C)C2C1N(C)c1ccccc1N2C (stereo not given)
-36.1

Which growth inhibition is listed for "COC(=O)N/N=C/c1oc(-c2ccccc2)c(-c2ccccc2)c1[N+](=O)[O-]" ?
-8.2

What measured growth inhibition goes with "CCOC(=O)N1CCNCCN(C(=O)OCC)CCNCC1" ?
24.1

Field request: growth inhibition | item: "NC(=O)N/N=C/c1ccc2c(c1)OCO2"
13.8

I have this compound here, "COC(=O)C(=[N+]=[N-])C(=O)c1ccccc1[N+](=O)[O-]" , and I need its recorded growth inhibition.
14.5

Which value of growth inhibition has been reported for CC(C)(C)OC(=O)NC(CC(N)=O)C(=O)O (stereo not given) in the records?
10.7

Find the recorded growth inhibition belonging to "O=C(O)c1cc(-c2ccccc2)nc2cc(Cl)ccc12" and report it.
25.6

---

- Procedure Text: NCI Yeast Anticancer Drug Screen. Data for the rad50 strain (AID 155);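 also: 0% = growth of vehicle-only cultures of the same strain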
- Condition Description: S. cerevisiae rad50 strain growth inhibition; at 50.0 µM; hits give high values
About 79,000 compounds went through this panel and 15% of them were active in at least one assay; those are over-represented in the sample as a whole. Calls of active or inactive are those of the source. Cut-off read from the data, not from the text of the source: active = growth inhibition above about 70%; inactive = the rest.
For each entry below, report its growth inhibition value.

Entry "C=CCOc1ccc(Cl)cc1Br" : reported growth inhibition = ?
-1.8% (inactive)

I'd like to know its growth inhibition. The molecule in question is "O=C1OC(=O)c2c(Br)c(Br)c(Br)c(Br)c21"
5.9% (inactive)

Reported growth inhibition, molecule "COc1ccc2nc(NCCNCCO)cc(NCCNCCO)c2c1" : ____
-12.2% (inactive)

Record request: growth inhibition value, item "CCCSc1ccc2c3c(cccc13)C(=O)OC2=O"
47.5% (inactive)

Item "CCC(=O)N(C)c1ccccc1" has what recorded growth inhibition?
22.4% (inactive)

Value lookup for growth inhibition; key = O=C(OCC(OC(=O)c1ccccc1)C(OC(=O)c1ccccc1)C(O)C(O)CO)c1ccccc1 (stereo unspecified) (tested in a mixture with another compound)
-6.8% (inactive)

Item under review: "COc1ccc(Cl)cc1NC(=O)c1cccc([N+](=O)[O-])c1" . Reported growth inhibition?
-2.45% (inactive)

So what's the measured growth inhibition for this one? "Cc1c([N+](=O)[O-])cc(C(C)C)c(O)c1[N+](=O)[O-]"
14.8% (inactive)

Any idea what its growth inhibition is? The molecule is CCC(C)n1c(C)nc2cc(C(F)(F)F)cc(N)c21 (stereo unspecified)
20.7% (inactive)

Need growth inhibition, item "CCOC(=O)NC(S(=O)(=O)O)S(=O)(=O)O"
0.6% (inactive)

Fill in the blank: the reported growth inhibition of O=C(CCC(=O)OCC1CCCO1)OCC1CCCO1 (stereo unspecified) is ____.
1.15% (inactive)

---

- Procedure Text: NCI Yeast Anticancer Drug Screen. Data for the bub3 strain (AID 167)
- Condition Description: S. cerevisiae bub3 mutant strain, at 50.0 µM, hits give high values
This is part of a sample that, as a whole, favours compounds with a hit. Of some 79,000 tested, about 15% had one in any assay.
Experimental Readout: growth inhibition (%)
Supply the numeric figure in %, leaving out any unit text.

Quick one: growth inhibition of "N#Cc1cc2c3ccccc3ncc2c2ccccc12" ?
-1.7

Please give the measured growth inhibition for this molecule: "CC(C)NC(=O)c1ccccc1Sc1ccccc1CN(C)C(C)C"
8.9

# query: growth inhibition of entry CC(=O)O[C@H]1C[C@]2(C)C(CCC3O[C@@]32C)[C@@]2(CC(c3ccoc3)OC2O)[C@@H]1C (stereo partly specified)
-23.1

Record request: growth inhibition value, item "[O-]/[N+](=C\c1ccccc1)[C@H](COCc1ccccc1)c1ccccc1"
-2.75

State the recorded growth inhibition for this entry: "COc1ccc(CC2=NCCc3cc(OCc4ccccc4)c(OC)cc32)cc1OCc1ccccc1"
78.5

Need growth inhibition, item "CCN(CCC#N)C(=S)Nc1ccc(C)c(C)c1"
-8.6

What value of growth inhibition has been recorded for this entry: "C[C@]12CCC(=O)C=C1CC[C@@H]1[C@@H]2[C@@H](O)C[C@@]2(C)[C@H]1CC[C@]2(O)C(=O)CO"
-30.1

What measured growth inhibition goes with "O=C(Nc1ccc(Cl)cc1)NS(=O)(=O)c1coc2cc(F)ccc2c1=O" ?
16.4

Need growth inhibition, item "O=S(=O)(Nc1ccc(Cl)cc1)c1ccc(F)cc1"
-29.1

Which growth inhibition is reported for this molecule? "CSc1ncc(CO)c(Nc2ccc(F)cc2)n1"
-14.9

Given the entry "CC(C)(C)C(C(N)=O)C(C)(C)C" , report its measured growth inhibition.
10.8
